Entries annotated with measured pIC50
Assay: Test 4: Inhibition of Cellular Release of Amyloid Peptide 1-40
Type: cell-based, Chinese hamster
Settings: Cricetulus griseus, CHO, 24 h; read-out: Amyloid-β1-40 release IC50
pIC50: −log10 of the molar value. Counter-ions that a name gives are not always drawn.
parameter-measured: pIC50

[[record]]
molecule = "C[C@@]1(c2nc(NC(=O)c3nc4ccn(CC(F)F)c4nc3N)ccc2F)CO[C@@](C)(C(F)(F)F)C(N)=N1"
parameter_measured = "pIC50"
value = 5.44

[[record]]
molecule = "NC1=NC(CF)(c2cc(NC(=O)c3ccc(Br)cn3)cnc2Cl)COC1 (centres unmarked) [Example 18, hydrochloride]"
parameter_measured = "pIC50"
value = 7.82

[[record]]
molecule = "Cc1cc(OC(F)F)cnc1C(=O)Nc1ccc(F)c([C@]2(C)CO[C@@](C)(C(F)(F)F)C(N)=N2)n1"
parameter_measured = "pIC50"
value = 7.62

[[record]]
molecule = "C[C@@]1(c2nc(NC(=O)c3ncc(OCCCF)nc3N)ccc2F)CO[C@@](C)(C(F)(F)F)C(N)=N1"
parameter_measured = "pIC50"
value = 7.14

[[record]]
molecule = "Cc1cc(OCF)cnc1C(=O)Nc1ccc(F)c([C@]2(C)CO[C@@](C)(C(F)(F)F)C(N)=N2)n1"
parameter_measured = "pIC50"
value = 7.59

[[record]]
molecule = "Cc1cc(C#N)cnc1C(=O)Nc1cccc([C@]2(C)CO[C@@](C)(C(F)(F)F)C(N)=N2)n1"
parameter_measured = "pIC50"
value = 8.22

[[record]]
molecule = "C[C@@]1(c2cc(NC(=O)c3ncc(C#N)cc3Cl)ncc2F)CO[C@@](C)(C(F)(F)F)C(N)=N1"
parameter_measured = "pIC50"
value = 6.85

[[record]]
molecule = "C[C@@]1(c2cccc(NC(=O)c3ccc(C#N)cn3)n2)CO[C@@](C)(C(F)(F)F)C(N)=N1"
parameter_measured = "pIC50"
value = 7.77

[[record]]
molecule = "[2H]c1nc(C(=O)Nc2cc(C3(CF)COCC(N)=N3)ccn2)c(C([2H])([2H])[2H])c([2H])c1Cl (centres unmarked) [Example 13, acetate]"
parameter_measured = "pIC50"
value = 6.26

[[record]]
molecule = "CC1(c2cccc(NC(=O)c3ccc(Br)cn3)n2)COCC(N)=N1 (racemic)"
parameter_measured = "pIC50"
value = 7.24

[[record]]
molecule = "Cc1cnc(C(=O)Nc2ccc(F)c([C@]3(C)CO[C@@](C)(C(F)(F)F)C(N)=N3)n2)c(C)n1"
parameter_measured = "pIC50"
value = 6.79

[[record]]
molecule = "C[C@@]1(c2cc(NC(=O)c3ncc(OC(F)F)cc3Cl)ncc2F)CO[C@@](C)(C(F)(F)F)C(N)=N1"
parameter_measured = "pIC50"
value = 6.39

[[record]]
molecule = "Cc1cc(C#N)cnc1C(=O)Nc1cc([C@]2(C)COC(CF)(CF)C(N)=N2)c(F)cn1"
parameter_measured = "pIC50"
value = 7.08

[[record]]
molecule = "C[C@@]1(c2cccc(NC(=O)c3ncc(C#N)cc3Cl)n2)CO[C@@](C)(C(F)(F)F)C(N)=N1"
parameter_measured = "pIC50"
value = 8.30

[[record]]
molecule = "C[C@@]1(c2cccc(NC(=O)c3ccc(Br)cn3)n2)COCC(N)=N1"
parameter_measured = "pIC50"
value = 7.39

[[record]]
molecule = "C[C@@]1(c2cccc(NC(=O)c3ncc(C#N)cc3N)n2)CO[C@@](C)(C(F)(F)F)C(N)=N1"
parameter_measured = "pIC50"
value = 7.32

[[record]]
molecule = "Cc1cc(C#N)cnc1C(=O)Nc1ccc(F)c([C@@]2(C(F)F)COCC(N)=N2)n1"
parameter_measured = "pIC50"
value = 6.54

[[record]]
molecule = "Cc1cc(C#N)cnc1C(=O)Nc1cc([C@@]2(C)CO[C@@](C)(C(F)(F)F)C(N)=N2)c(F)cn1"
parameter_measured = "pIC50"
value = 5.32

[[record]]
molecule = "Cc1cc(C#N)cnc1C(=O)Nc1ccc(F)c([C@]2(C(F)F)COCC(N)=N2)n1"
parameter_measured = "pIC50"
value = 8.30

[[record]]
molecule = "Cc1cc(C#N)cnc1C(=O)Nc1cccc(C2(CF)COCC(N)=N2)n1 (centres unmarked)"
parameter_measured = "pIC50"
value = 7.40

[[record]]
molecule = "COc1cnc(C(=O)Nc2ccc(F)c([C@]3(C)CO[C@@](C)(C(F)(F)F)C(N)=N3)n2)c(C)c1"
parameter_measured = "pIC50"
value = 7.12

[[record]]
molecule = "COCCn1ccc2nc(C(=O)Nc3ccc(F)c([C@]4(C)CO[C@@](C)(C(F)(F)F)C(N)=N4)n3)c(N)nc21"
parameter_measured = "pIC50"
value = 6.43

[[record]]
molecule = "Cc1cc(C#N)cnc1C(=O)Nc1ccc(F)c([C@]2(C)CO[C@@](C)(C(F)(F)F)C(N)=N2)n1"
parameter_measured = "pIC50"
value = 8.70

[[record]]
molecule = "N#Cc1cnc(C(=O)Nc2ccc(F)c([C@]3(C(F)F)COCC(N)=N3)n2)c(Cl)c1"
parameter_measured = "pIC50"
value = 7.92

[[record]]
molecule = "[2H]c1nc(C(=O)Nc2cccc(C3(CF)COCC(N)=N3)n2)c(C([2H])([2H])[2H])c([2H])c1Cl (centres unmarked)"
parameter_measured = "pIC50"
value = 7.20

[[record]]
molecule = "Cc1cnc(C(=O)Nc2ccc(F)c([C@]3(C)CO[C@@](C)(C(F)(F)F)C(N)=N3)n2)cn1"
parameter_measured = "pIC50"
value = 6.89

[[record]]
molecule = "NC1=NC(CF)(c2cccc(NC(=O)c3ccc(Cl)cn3)n2)COC1 (centres unmarked)"
parameter_measured = "pIC50"
value = 6.85

[[record]]
molecule = "C[C@]1(c2cccc(NC(=O)c3ccc(C#N)cn3)n2)CO[C@@](C)(C(F)(F)F)C(N)=N1"
parameter_measured = "pIC50"
value = 5.72

[[record]]
molecule = "[2H]c1nc(C(=O)Nc2cccc([C@]3(C)CO[C@@](C)(C(F)(F)F)C(N)=N3)n2)c(C([2H])([2H])[2H])c([2H])c1Cl"
parameter_measured = "pIC50"
value = 6.96

[[record]]
molecule = "C[C@@]1(c2cccc(NC(=O)c3ncc(Br)cc3Cl)n2)CO[C@@](C)(C(F)(F)F)C(N)=N1"
parameter_measured = "pIC50"
value = 7.54

[[record]]
molecule = "Cc1cc(C#N)cnc1C(=O)Nc1ccc(F)c([C@@]2(C)CO[C@@](C)(C(F)(F)F)C(N)=N2)n1"
parameter_measured = "pIC50"
value = 6.55

[[record]]
molecule = "NC1=NC(CF)(c2cccc(NC(=O)c3ccc(Br)cn3)n2)COC1 (centres unmarked)"
parameter_measured = "pIC50"
value = 7.01

